Cited source for all entries: paper PMC5540273

System: IKK-alpha;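 further: KINOMEscan kinase panel screen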
Construct: gene CHUK
Details: concentration: 1 μM,replicates: in singlicate; n = 1
property: %Inh (%)
Give bare numbers, in %.

compound="COc1cc2ncn(-c3cc(OCC4CCCCC4)c(C(N)=O)s3)c2cc1OC [GSK204559]" measured_result=0
compound=O=C(Nc1ccc(Oc2ccc3nc(NC(=O)C4CC4)cn3n2)c(F)c1)c1cccn(-c2ccccc2)c1=O measured_result=0
compound="COc1cc(Nc2nccc(N3CCC(NC(=O)c4cccc(C#N)c4)C3)n2)cc(OC)c1OC (centres unmarked) [GSK1379751]" measured_result=19

Give one value of %Inh per listed compound.
1. CN1CCN(CCNc2nc3cc(Oc4ccc(NC(=O)Nc5cc(C(F)(F)F)ccc5F)cc4)ccc3[nH]2)CC1.Cl.Cl [GW768504]
2. COC(=O)Nc1nc2cc(Oc3ccc(NC(=O)Nc4cc(C(F)(F)F)ccc4Cl)cc3)ccc2[nH]1.Cl [GW697465]
3. O=C(Nc1ccccc1)c1cccc(Oc2ccc3nccn3n2)c1
4. CN(c1ccccc1CNc1nc(Nc2ccc3c(c2)CC(=O)N3)ncc1C(F)(F)F)S(C)(=O)=O
5. COc1cccc(OC)c1C(=O)Nc1cccc(-c2nn3ccccc3c2-c2ccnc(Nc3cccc(F)c3)n2)c1 [GSK361065]
6. Cl.Nc1n[nH]c2cc(-c3ccccn3)ccc12 [GSK2189892]

Output:
1: 0; 2: 35; 3: 0; 4: 0; 5: 0; 6: 0

Give one value of %Inh per listed compound.
1. NC(=O)Nc1sc(-c2ccc(F)cc2)cc1C(N)=O [GW789449]
2. CNC(=O)c1ccccc1Nc1nc(Nc2cccc(CS(C)(=O)=O)c2)ncc1C.O=CO [GSK1520489]

Output:
78
61
